- target_or_test_system: T1, human MASP-2cf CCP1-CCP2-SP (human, UniProt O00187 298-686, limits assumed)
- T1 construct: domain: CCP1-CCP2-SP; also called human MASP-2 catalytic fragment
- T1 sequence (O00187 298-686 limits assumed): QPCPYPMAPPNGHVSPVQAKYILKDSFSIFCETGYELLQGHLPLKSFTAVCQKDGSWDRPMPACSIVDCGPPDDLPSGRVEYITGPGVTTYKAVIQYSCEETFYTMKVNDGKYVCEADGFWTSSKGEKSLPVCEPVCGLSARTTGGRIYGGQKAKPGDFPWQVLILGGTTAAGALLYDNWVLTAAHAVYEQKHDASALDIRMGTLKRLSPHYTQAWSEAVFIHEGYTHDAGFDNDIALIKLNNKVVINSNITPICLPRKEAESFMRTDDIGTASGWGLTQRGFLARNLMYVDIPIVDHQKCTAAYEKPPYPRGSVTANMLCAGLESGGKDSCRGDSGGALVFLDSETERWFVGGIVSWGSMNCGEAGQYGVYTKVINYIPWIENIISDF
- assay: SPR, target immobilised
Where no end group is shown, it is not given here.
assay_endpoint: kon (M⁻¹ s⁻¹)

[[record]]
binder = "EVO215 (designed binder, not fully specified; ends and bridges not checked, Modified TFPI-D2 Kunitz domain; made as m1) KPDFCFLENDPGWCRAAKRRYFYNNQTKQCERFGYGGCLGNMNNFVTLEECKNICEDG"
result_value = "1.84e+06"

[[record]]
binder = "EVO211 (designed binder, not fully specified; ends and bridges not checked, Modified TFPI-D2 Kunitz domain; made as m1) KPDFCFLENDPGWCRALKRRYFYNNQTKQCERFGYGGCLGNMNNFVTLEECKNICEDG"
result_value = "1.54e+06"

[[record]]
binder = "EVO213 (designed binder, Modified TFPI-D2 Kunitz domain; made as m1) KPDFCFLENDPGPCRAAKRRYFYNNQTKQCERFGYGGCLGNMNNFVTLEECKNICEDG"
result_value = 967000

[[record]]
binder = "EVO2b (designed binder, not fully specified; cysteine pairing not given here, Modified TFPI-D2 Kunitz domain; made as m1) KPDFCFLEEDPGPCRAVKRRYFYNNQTKQCERFGYGGCLGNMNNFETLEECKNICEDG"
result_value = 790000

[[record]]
binder = "EVO2c (designed binder, not fully specified; cysteine pairing not given here, Modified TFPI-D2 Kunitz domain; made as m1) KPDFCFLEEDPGPCRAVKRRYFYNNQTKQCERFYYGGCLGNMNNFETLEECKNICEDG"
result_value = "1.55e+06"

[[record]]
binder = "EVO23 (designed binder, not fully specified; cysteine pairing not given here, Modified TFPI-D2 Kunitz domain; made as m1) KPDFCFLENDPGPCRALKRRYFYNNQTKQCERFYYGGCFGNMNNFVTLEECKNICEDG"
result_value = "2.1e+06"

[[record]]
binder = "EVO24 (designed binder, not fully specified; cysteine pairing not given here, Modified TFPI-D2 Kunitz domain; made as m1) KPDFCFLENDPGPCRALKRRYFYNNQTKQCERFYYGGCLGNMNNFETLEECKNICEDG"
result_value = "2.25e+06"

